Recorded values, source patent US7544814B2.

A collection of compounds and their measured pEC50
Target: chymotrypsin-like activity of purified rabbit muscle 20S proteasome (Oryctolagus cuniculus)
Sequence (G1T4Q9 1-263): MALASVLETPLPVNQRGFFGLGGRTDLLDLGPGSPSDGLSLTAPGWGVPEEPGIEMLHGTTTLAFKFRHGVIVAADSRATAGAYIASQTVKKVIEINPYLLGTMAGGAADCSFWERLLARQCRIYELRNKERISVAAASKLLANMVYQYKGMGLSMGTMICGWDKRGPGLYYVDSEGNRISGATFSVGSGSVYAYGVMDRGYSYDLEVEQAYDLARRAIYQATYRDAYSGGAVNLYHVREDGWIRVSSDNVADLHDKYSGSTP
Assay: In vitro inhibition of 20S proteasome chymotrypsin-like activity (suc-LLVY-AMC)
Conditions: EC50 values, chymotrypsin-like activity, summary of Table 6
pEC50: −log10 of the molar value.
metric-name: pEC50

compound | metric-name | result
CC[C@H]1C(=O)N[C@](C(=O)SCCC(=O)OC)([C@@H](O)[C@@H]2C=CCCC2)[C@@]1(C)O [Formula II-47] | pEC50 | 7.06 to 7.89
CCC(=O)OCC[C@H]1C(=O)N[C@@]2([C@@H](O)[C@@H]3C=CCCC3)C(=O)O[C@@]12C [Formula II-22] | pEC50 | 7.96 to 8.70
C[C@@]12OC(=O)[C@]1([C@@H](O)[C@@H]1C=CCCC1)NC(=O)[C@@H]2CCN=[N+]=[N-] [Formula II-29] | pEC50 | 7.96 to 8.70
COC(=O)CCSC(=O)C1(C(O)C2C=CCCC2)NC(=O)C2CCOC21C (stereo not shown) [Formula VI-1A] | pEC50 | 6.02 to 6.68

---

Biological target: chymotrypsin-like activity of purified rabbit muscle 20S proteasome (Oryctolagus cuniculus)
Test: In vitro inhibition of 20S proteasome chymotrypsin-like activity (suc-LLVY-AMC)
Conditions: read-out: EC50 Chymotrypsin-like
pEC50: −log10 of the molar value.

compound | pEC50
C[C@@]12OC(=O)[C@]1([C@@H](O)C1CCCCC1)NC(=O)[C@@H]2CCCl [Formula II-2] | 7.72

---

Target: caspase-like activity of purified rabbit muscle 20S proteasome (Oryctolagus cuniculus)
Assay: In vitro inhibition of 20S proteasome caspase-like activity (Z-LLE-AMC)
Settings: EC50 Caspase-like, Table 6, values in nM
metric-name: EC50 (nM)

compound | metric-name | unit-info | readout-number
CCC[C@H]1C(=O)N[C@@]2([C@@H](O)[C@@H]3C=CCCC3)C(=O)O[C@@]12C [Formula II-30] | EC50 | nM | 956

---

Items are presented alongside their recorded EC50.
System: B16-F10
Experiment: Cell growth inhibition (resazurin), B16-F10
Conditions: read-out: EC50 against B16-F10; Table 1; 48 hours drug exposure; mean ± SD where n≥3
metric-name: EC50 (nM)

compound | readout-number
C[C@@]12OC(=O)[C@]1([C@@H](O)C1CCCCC1)NC(=O)[C@@H]2CCCl | 180
C[C@@]12OC(=O)[C@]1([C@@H](O)[C@H]1CCCC3OC31)NC(=O)[C@@H]2CCCl (single isomer, unassigned) | 1140

---

Examples of compounds with documented EC50 follow.
Molecular target: caspase-like activity of purified rabbit muscle 20S proteasome (Oryctolagus cuniculus, UniProt A0A5F9DQW2)
Sequence (A0A5F9DQW2 1-212): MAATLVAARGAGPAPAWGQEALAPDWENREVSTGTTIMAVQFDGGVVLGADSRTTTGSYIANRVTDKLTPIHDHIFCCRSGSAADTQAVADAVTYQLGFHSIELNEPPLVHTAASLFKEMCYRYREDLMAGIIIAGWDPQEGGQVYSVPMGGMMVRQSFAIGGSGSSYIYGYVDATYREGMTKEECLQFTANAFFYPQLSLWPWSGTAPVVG
Assay: In vitro inhibition of 20S proteasome caspase-like activity (Z-LLE-AMC)
Conditions: EC50 Caspase-like, Table 6, values in μM

compound | EC50
C[C@H]1C(=O)N[C@@]2(C(O)[C@@H]3C=CCCC3)C(=O)O[C@@]12C (single isomer, unassigned) [Formula II-20] | 1.4 µM
CC[C@H]1C(=O)N[C@@]2([C@@H](O)C3CCCCC3)C(=O)O[C@@]12C [Formula II-3] | > 20 µM
COC(=O)CCSC(=O)[C@]1([C@@H](O)[C@@H]2C=CCCC2)NC(=O)[C@H](CCCl)[C@]1(C)O [Formula II-44] | 1.4 µM
CC12OC(=O)C1(C(=O)C1C=CCCC1)NC(=O)C2CCCl (centres unmarked) [Formula II-13C] | > 20 µM
C[C@@H]1C(=O)N[C@@]2([C@@H](O)[C@@H]3C=CCCC3)C(=O)O[C@@]12C [Formula II-28] | > 20 µM
C[C@@]12OC(=O)[C@]1([C@@H](O)[C@H]1CCC[C@H](Cl)[C@H]1O)NC(=O)[C@@H]2CCCl [Formula IV-3C] | > 20 µM
CC[C@@]12OC(=O)[C@]1([C@@H](O)[C@@H]1C=CCCC1)NC(=O)[C@@H]2CCCl [Formula II-24C] | > 20 µM
CCC[C@H]1C(=O)N[C@@]2([C@@H](O)[C@@H]3C=CCCC3)C(=O)O[C@@]12C [Formula II-30] | 1.3 µM

---

Molecular target: chymotrypsin-like activity of purified rabbit muscle 20S proteasome (Oryctolagus cuniculus, UniProt G1T4Q9)
Assay: In vitro inhibition of 20S proteasome chymotrypsin-like activity (suc-LLVY-AMC)
Settings: EC50 Chymotrypsin-like, Table 6, values in nM
metric-name: EC50

compound | metric-name | result
C[C@@]12OC(=O)[C@]1([C@@H](O)[C@H]1CCCC3OC31)NC(=O)[C@@H]2CCCl (single isomer, unassigned) | EC50 | 85 nM
C[C@@]12OC(=O)[C@]1(C(O)[C@@H]1C=CCCC1)NC(=O)[C@@H]2CCI (single isomer, unassigned) | EC50 | 3 nM
C[C@H]1C(=O)N[C@@]2(C(O)[C@@H]3C=CCCC3)C(=O)O[C@@]12C (single isomer, unassigned) | EC50 | 7.7 nM
C[C@@]12OC(=O)[C@]1([C@@H](O)[C@@H]1C=CCCC1)NC(=O)[C@@H]2CCBr | EC50 | 2.3 nM
CC12OC(=O)C1(CC1C=CCCC1)NC(=O)C2CCCl (centres unmarked) | EC50 | 52 nM
CC[C@H]1C(=O)N[C@@]2([C@@H](O)C3CCCCC3)C(=O)O[C@@]12C | EC50 | 964 nM
CCC[C@H]1C(=O)N[C@@]2([C@@H](O)[C@@H]3C=CCCC3)C(=O)O[C@@]12C | EC50 | 21 nM
C[C@@]12OC(=O)[C@]1([C@@H](O)[C@@H]1C=CCCC1)NC(=O)[C@@H]2CCO | EC50 | 8 nM
C[C@@]12OC(=O)[C@]1([C@@H](O)[C@@H]1C=CCCC1)NC(=O)[C@@H]2CCN=C=S | EC50 | 3.4 nM
CC[C@H]1C(=O)N[C@](C(=O)SCCC(=O)OC)([C@@H](O)[C@@H]2C=CCCC2)[C@@]1(C)O | EC50 | 50 nM
C[C@@]12OC(=O)[C@]1([C@@H](O)C1CCCCC1)NC(=O)[C@@H]2CCBr | EC50 | 13 nM

---

Test system: RPMI 8226
Test: cells
Conditions: Homo sapiens, RPMI-8226, read-out: Mean 10% FBS, EC50, RPMI 8226; media containing 10% FBS; mean
pEC50: −log10 of the molar value.

molecule | pEC50
C[C@@]12OC(=O)[C@]1([C@@H](O)[C@@H]1C=CCCC1)NC(=O)[C@@H]2CCCl [Formula II-16] | 7.96
C[C@@]12OC(=O)[C@]1([C@@H](O)[C@@H]1C=CCCC1)NC(=O)[C@@H]2CCBr [Formula II-18] | 7.70

---

System: NF-κB
Experiment: NF-κB-mediated luciferase reporter gene assay, HEK293 NF-κB/Luc cells, TNF-α stimulation
Type: cell-based, human
Conditions: Table 12; read-out: NF-κB EC50
pEC50: −log10 of the molar value.

compound | pEC50
C[C@@]12OC(=O)[C@]1([C@@H](O)[C@@H]1C=CCCC1)NC(=O)[C@@H]2CCO [Formula II-21] | 5.57

---

Test system: NCI-H292
Test: Cell growth inhibition (resazurin), NCI-H292
Conditions: Homo sapiens, NCI-H292, 48 h, read-out: EC50 against NCI-H292, Table 1; 48 hours drug exposure; mean ± SD where n≥3

compound | EC50, nM
C[C@@]12OC(=O)[C@]1(C(O)[C@@H]1C=CCCC1)NC(=O)[C@@H]2CCI (single isomer, unassigned) | 27

---

Molecular target: trypsin-like activity of purified rabbit muscle 20S proteasome (Oryctolagus cuniculus, UniProt G1SWK8)
Sequence (G1SWK8 1-271): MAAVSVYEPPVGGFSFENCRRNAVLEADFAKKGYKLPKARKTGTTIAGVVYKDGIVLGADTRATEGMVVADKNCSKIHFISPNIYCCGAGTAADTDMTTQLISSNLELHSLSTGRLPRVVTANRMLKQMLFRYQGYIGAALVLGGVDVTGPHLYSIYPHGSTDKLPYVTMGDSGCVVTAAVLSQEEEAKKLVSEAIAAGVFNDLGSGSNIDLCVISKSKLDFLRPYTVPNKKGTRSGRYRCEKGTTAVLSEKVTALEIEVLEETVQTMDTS
Experiment: In vitro inhibition of 20S proteasome trypsin-like activity (Boc-LRR-AMC)
Details: read-out: EC50 Trypsin-like
metric-name: EC50 (µM)

entry-smiles | metric-name | readout-number
C[C@@]12OC(=O)[C@]1([C@@H](O)C1CCCCC1)NC(=O)[C@@H]2CCBr | EC50 | 0.11
